Data provenance is patent US6274715A.

Entries and their measured MIC follow.
test system: CANDIDA ALBICANS CCH 442; assay: In vitro antibacterial activity, MIC, BHI agar dilution; type: cell-based; conditions: C. albicans CCH 442, unit assumed

molecule	MIC
CC[C@H]1OC(=O)[C@H](C)C(=O)[C@H](C)[C@@H](O[C@@H]2O[C@H](C)C[C@H](N(C)C)[C@H]2O)[C@](C)(OC)C[C@@H](C)C2=N[C@H](C)[C@H](C)N3C(=O)O[C@@]1(C)[C@H]3[C@H]2C	> 100 µg/mL

# MIC lookup, item CC[C@H]1OC(=O)[C@H](C)C(=O)[C@H](C)[C@@H](O[C@@H]2O[C@H](C)C[C@H](N(C)C)[C@H]2O)[C@](C)(OC)C[C@@H](C)C2=NCC(COC(=O)c3cccc4[nH]ccc34)N3C(=O)O[C@@]1(C)[C@H]3[C@H]2C (some centres unmarked)
> 100 µg/mL

---

system: STAPHYLOCOCCUS AUREUS A5177; experiment: In vitro antibacterial activity, MIC, BHI agar dilution; format: cell-based; settings: S. aureus A5177, unit assumed
Entries and their measured log10 of MIC follow.
// stored as log10 of MIC expressed in µg/mL

Can you look up log10 of MIC on STAPHYLOCOCCUS AUREUS A5177 for CC[C@H]1OC(=O)[C@H](C)[C@@H](O[C@H]2C[C@@](C)(OC)[C@@H](O)[C@H](C)O2)[C@H](C)[C@@H](O[C@@H]2O[C@H](C)C[C@H](N(C)C)[C@H]2O)[C@](C)(O)C[C@@H](C)C(=O)[C@H](C)[C@@H](O)[C@]1(C)O [Ery A, Erythromycin A, reference compound] ?
0.79

Here is the next molecule: CCC1OC(=O)C(C)C(=O)C(C)C(OC2OC(C)CC(N(C)C)C2O)C(C)(OC)CC(C)C2=NCC(CSc3ccccc3)(CN(C)Cc3ccccc3)N3C(=O)OC1(C)C3C2C (centres unmarked)
-0.11

Here is the next molecule: CC[C@H]1OC(=O)[C@H](C)C(=O)[C@H](C)[C@@H](O[C@@H]2O[C@H](C)C[C@H](N(C)C)[C@H]2O)[C@](C)(OC)C[C@@H](C)C2=N[C@@H](C)[C@H](C)N3C(=O)O[C@@]1(C)[C@H]3[C@H]2C
-0.41

Here is the next molecule: CC[C@H]1OC(=O)[C@H](C)C(=O)[C@H](C)[C@@H](O[C@@H]2O[C@H](C)C[C@H](N(C)C)[C@H]2O)[C@](C)(OC)C[C@@H](C)C2=N[C@@H](COCc3ccncc3)CN3C(=O)O[C@@]1(C)[C@H]3[C@H]2C
-0.70

Here is the next molecule: CC[C@H]1OC(=O)[C@H](C)C(=O)[C@H](C)[C@@H](O[C@@H]2O[C@H](C)C[C@H](N(C)C)[C@H]2O)[C@](C)(OC)C[C@@H](C)C2=N[C@H](COCc3ccc(F)cc3)CN3C(=O)O[C@@]1(C)[C@H]3[C@H]2C
-1.30

Here is the next molecule: CC[C@H]1OC(=O)[C@H](C)C(=O)[C@H](C)[C@@H](O[C@@H]2O[C@H](C)C[C@H](N(C)C)[C@H]2O)[C@](C)(OC)C[C@@H](C)C2=N[C@H](COCc3ccc(OC)cc3)CN3C(=O)O[C@@]1(C)[C@H]3[C@H]2C
-0.41

Here is the next molecule: CC[C@H]1OC(=O)[C@H](C)C(=O)[C@H](C)[C@@H](O[C@@H]2O[C@H](C)C[C@H](N(C)C)[C@H]2O)[C@](C)(OC)C[C@@H](C)C2=N[C@H](COCc3cccnc3)CN3C(=O)O[C@@]1(C)[C@H]3[C@H]2C
-0.41

Here is the next molecule: CC[C@H]1OC(=O)[C@H](C)C(=O)[C@H](C)[C@@H](O[C@@H]2O[C@H](C)C[C@H](N(C)C)[C@H]2O)[C@](C)(OC)C[C@@H](C)C2=N[C@@H]3CN(Cc4ccncc4)C[C@@H]3N3C(=O)O[C@@]1(C)[C@H]3[C@H]2C
-0.11

---

Entries and their measured MIC follow.
tested on: PSEUDOMONAS CEPACIA 296I; test: In vitro antibacterial activity, MIC, BHI agar dilution; type: cell-based; conditions: P. cepacia 296I, unit assumed

Example entries begin here.
compound	MIC
CC[C@H]1OC(=O)[C@H](C)C(=O)[C@H](C)[C@@H](O[C@@H]2O[C@H](C)C[C@H](N(C)C)[C@H]2O)[C@](C)(OC)C[C@@H](C)C2=N[C@@H](Cc3ccccc3)CN3C(=O)O[C@@]1(C)[C@H]3[C@H]2C	> 100 µg/mL
CC[C@H]1OC(=O)[C@H](C)C(=O)[C@H](C)[C@@H](O[C@@H]2O[C@H](C)C[C@H](N(C)C)[C@H]2O)[C@](C)(OC)C[C@@H](C)C2=N[C@H](COCc3cccnc3)CN3C(=O)O[C@@]1(C)[C@H]3[C@H]2C	> 100 µg/mL
CC[C@H]1OC(=O)[C@H](C)C(=O)[C@H](C)[C@@H](O[C@@H]2O[C@H](C)C[C@H](N(C)C)[C@H]2O)[C@](C)(OC)C[C@@H](C)C2=N[C@H](COCc3ccccc3Cl)CN3C(=O)O[C@@]1(C)[C@H]3[C@H]2C	> 100 µg/mL
CC[C@H]1OC(=O)[C@H](C)C(=O)[C@H](C)[C@@H](O[C@@H]2O[C@H](C)C[C@H](N(C)C)[C@H]2O)[C@](C)(OC)C[C@@H](C)C2=N[C@H](COCc3ccccn3)CN3C(=O)O[C@@]1(C)[C@H]3[C@H]2C	> 100 µg/mL
C#CCN1CC2N=C3[C@H](C)C[C@@](C)(OC)[C@H](O[C@@H]4O[C@H](C)C[C@H](N(C)C)[C@H]4O)[C@@H](C)C(=O)[C@@H](C)C(=O)O[C@H](CC)[C@@]4(C)OC(=O)N(C2C1)[C@@H]4[C@H]3C (some centres unmarked)	> 100 µg/mL

# MIC lookup, item CC[C@H]1OC(=O)[C@H](C)C(=O)[C@H](C)[C@@H](O[C@@H]2O[C@H](C)C[C@H](N(C)C)[C@H]2O)[C@](C)(OC)C[C@@H](C)C2=NC3CN(CCCc4ccccc4)CC3N3C(=O)O[C@@]1(C)[C@H]3[C@H]2C (some centres unmarked)
25 µg/mL

Here is the next compound: CCC1OC(=O)C(C)C(=O)C(C)C(OC2OC(C)CC(N(C)C)C2O)C(C)(OC)CC(C)C2=NCC(CSc3ccccc3)(CN(C)Cc3ccccc3)N3C(=O)OC1(C)C3C2C (centres unmarked)
> 100 µg/mL

Here is the next compound: CC[C@H]1OC(=O)[C@H](C)C(=O)[C@H](C)[C@@H](O[C@@H]2O[C@H](C)C[C@H](N(C)C)[C@H]2O)[C@](C)(OC)C[C@@H](C)C2=NC[C@H](Cc3ccc(OCc4ccccc4)cc3)N3C(=O)O[C@@]1(C)[C@H]3[C@H]2C
> 100 µg/mL

---

system: STAPHYLOCOCCUS EPIDERMIDIS 3519; format: cell-based; conditions: S. epidermidis 3519; BHI agar; unit assumed
measuredAttribute: log10(MIC) (log10 of the value in µg/mL)
// stored as log10 of MIC expressed in µg/mL

Example entries begin here.
compound	measuredResult
CC[C@H]1OC(=O)[C@H](C)C(=O)[C@H](C)[C@@H](O[C@@H]2O[C@H](C)C[C@H](N(C)C)[C@H]2O)[C@](C)(OC)C[C@@H](C)C2=NC[C@H](COCc3ccc(OC)cc3)N3C(=O)O[C@@]1(C)[C@H]3[C@H]2C [Example 62]	-0.70
CC[C@H]1OC(=O)[C@H](C)[C@@H](O[C@H]2C[C@@](C)(OC)[C@@H](O)[C@H](C)O2)[C@H](C)[C@@H](O[C@@H]2O[C@H](C)C[C@H](N(C)C)[C@H]2O)[C@](C)(O)C[C@@H](C)C(=O)[C@H](C)[C@@H](O)[C@]1(C)O [Ery A, Erythromycin A, reference compound]	-0.41
CC[C@H]1OC(=O)[C@H](C)C(=O)[C@H](C)[C@@H](O[C@@H]2O[C@H](C)C[C@H](N(C)C)[C@H]2O)[C@](C)(OC)C[C@@H](C)C2=NC3CN(CCc4cccc([N+](=O)[O-])c4)CC3N3C(=O)O[C@@]1(C)[C@H]3[C@H]2C (stereo partly shown) [Example 120]	-0.41
CC[C@H]1OC(=O)[C@H](C)C(=O)[C@H](C)[C@@H](O[C@@H]2O[C@H](C)C[C@H](N(C)C)[C@H]2O)[C@](C)(OC)C[C@@H](C)C2=NC3CN(C=O)CC3N3C(=O)O[C@@]1(C)[C@H]3[C@H]2C (stereo partly shown) [Example 124]	0.49
CC[C@H]1OC(=O)[C@H](C)C(=O)[C@H](C)[C@@H](O[C@@H]2O[C@H](C)C[C@H](N(C)C)[C@H]2O)[C@](C)(OC)C[C@@H](C)C2=N[C@H](CN3CCN(C)CC3)CN3C(=O)O[C@@]1(C)[C@H]3[C@H]2C [Example 93]	-0.11
CC[C@H]1OC(=O)[C@H](C)C(=O)[C@H](C)[C@@H](O[C@@H]2O[C@H](C)C[C@H](N(C)C)[C@H]2O)[C@](C)(OC)C[C@@H](C)C2=NC[C@H](Cc3ccc(NC(=O)OCc4ccccc4)cc3)N3C(=O)O[C@@]1(C)[C@H]3[C@H]2C [Example 68]	-0.41

# log10(MIC) lookup, item CC[C@H]1OC(=O)[C@H](C)C(=O)[C@H](C)[C@@H](O[C@@H]2O[C@H](C)C[C@H](N(C)C)[C@H]2O)[C@](C)(OC)C[C@@H](C)C2=NC[C@@H](CCCc3ccccc3)N3C(=O)O[C@@]1(C)[C@H]3[C@H]2C [Example 36]
-0.70

Here is the next compound: CC[C@H]1OC(=O)[C@H](C)C(=O)[C@H](C)[C@@H](O[C@@H]2O[C@H](C)C[C@H](N(C)C)[C@H]2O)[C@](C)(OC)C[C@@H](C)C2=N[C@@H]3CN(Cc4ccccc4)C[C@@H]3N3C(=O)O[C@@]1(C)[C@H]3[C@H]2C [Example 21]
-0.11

Here is the next compound: CC[C@H]1OC(=O)[C@H](C)C(=O)[C@H](C)[C@@H](O[C@@H]2O[C@H](C)C[C@H](N(C)C)[C@H]2O)[C@](C)(OC)C[C@@H](C)C2=NC3CN(CCc4ccc([N+](=O)[O-])cc4)CC3N3C(=O)O[C@@]1(C)[C@H]3[C@H]2C (stereo partly shown) [Example 118]
-0.41

Here is the next compound: CC[C@H]1OC(=O)[C@H](C)C(=O)[C@H](C)[C@@H](O[C@@H]2O[C@H](C)C[C@H](N(C)C)[C@H]2O)[C@](C)(OC)C[C@@H](C)C2=NC3CN(CCc4ccc(NC(C)=O)cc4)CC3N3C(=O)O[C@@]1(C)[C@H]3[C@H]2C (stereo partly shown) [Example 122]
-0.11

Here is the next compound: CC[C@H]1OC(=O)[C@H](C)C(=O)[C@H](C)[C@@H](O[C@@H]2O[C@H](C)C[C@H](N(C)C)[C@H]2O)[C@](C)(OC)C[C@@H](C)C2=N[C@H](COCc3ccc(C(=O)OC)cc3)CN3C(=O)O[C@@]1(C)[C@H]3[C@H]2C [Example 84]
-0.41
